molecular target: hemagglutinin (HA) of influenza B/Lee/40 (Old) (influenza B virus) (UniProt P03460); test: cell-based or functional assay
Sequence (P03460 16-584 limits assumed): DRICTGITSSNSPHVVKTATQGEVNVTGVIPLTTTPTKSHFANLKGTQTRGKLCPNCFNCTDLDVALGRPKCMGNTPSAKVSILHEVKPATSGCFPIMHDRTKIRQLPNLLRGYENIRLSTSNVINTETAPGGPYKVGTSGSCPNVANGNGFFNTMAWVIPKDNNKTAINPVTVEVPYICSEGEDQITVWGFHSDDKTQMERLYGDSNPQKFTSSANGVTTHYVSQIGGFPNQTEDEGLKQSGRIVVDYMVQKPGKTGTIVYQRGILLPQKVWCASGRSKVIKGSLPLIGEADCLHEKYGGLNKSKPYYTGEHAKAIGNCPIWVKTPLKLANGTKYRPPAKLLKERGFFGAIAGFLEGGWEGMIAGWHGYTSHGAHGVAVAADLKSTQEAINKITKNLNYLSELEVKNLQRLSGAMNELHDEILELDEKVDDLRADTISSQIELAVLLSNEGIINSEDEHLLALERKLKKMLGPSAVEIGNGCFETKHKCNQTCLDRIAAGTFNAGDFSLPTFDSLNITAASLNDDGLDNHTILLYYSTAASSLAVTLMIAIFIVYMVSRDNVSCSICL
Listed here: items and their measured VNA IC50.
reported metric: VNA IC50

• SD3002 (VHH) VHH: EVQLVESGGGLVQPGGSLRLSCAASGFTFSTSWMYWLRQAPGKGLEWVSVINTDGGTYYADSVKGRFTISRDNSKNTLYLQMNSLRAEDTAVYYCAKDWGGPEPTRGQGTQVTVSS = > 1 µM
• SD3100 (VHH) VHH: EVQLVESGGGLVQPGGSLRLSCAISGLSLDTYAVGWFRQAPGKEREGVSCISSGHGATYYADSVKGRFTISTDNSKNTLYLQMNSLRAEDTAVYYCATESRYYCSDNWPAPQRYIYWGQGTLVTVSS = > 1 µM
